Entry source: patent US20170173151A1

The entries below are paired with their reported IC50 of killing of Raji cells.
TARGET: human CD74, naturally expressed on cells (Raji, Daudi, M4A4, NCI-H747 cells; human tonsil tissue) (human) (UniProt P04233)
ASSAY REMARKS: cell-based or functional assay

Here is how some binders turned out for IC50 of killing of Raji cells.
HuMab-CD74-011-vcMMAE (antibody, IgG1, V domains shown, drug-linker vcMMAE alkylated to the cysteines of the reduced antibody (DAR 3.8-3.9), Antibody-drug conjugate of HuMab-CD74-011 (IgG1,kappa); also called vcMMAE-conjugated HuMab-CD74-011) VH: QVQLVESGGGVVQPGRSLRLSCAASGFTFSSYGMHWVRQAPDKGLEWVAVIWYDGSNKYYADSVKGRFTISRDNSKNTLYLQMNSLRAEDTAVYYCARGGTLVRGAMYGTDVWGQGTTVTVSS VL: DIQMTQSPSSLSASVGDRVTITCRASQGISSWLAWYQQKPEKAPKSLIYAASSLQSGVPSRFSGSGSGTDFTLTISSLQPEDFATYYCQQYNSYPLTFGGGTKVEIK = 0.04 µg/mL
HuMab-CD74-006-vcMMAE (antibody, IgG1, V domains shown, drug-linker vcMMAE alkylated to the cysteines of the reduced antibody (DAR 4.0), Antibody-drug conjugate of HuMab-CD74-006 (IgG1,kappa); also called vcMMAE-conjugated HuMab-CD74-006) VH: QVQLVESGGGVVQPGRSLRLSCAASGFTFSSYAMHWVRQAPGKGLEWVAVISYDGSIKYYADSVKGRFTISRDNSKNTLYLQMNSLRVEDTAVFYCARGREITSQNIVILLDYWGQGTLVTVTS VL: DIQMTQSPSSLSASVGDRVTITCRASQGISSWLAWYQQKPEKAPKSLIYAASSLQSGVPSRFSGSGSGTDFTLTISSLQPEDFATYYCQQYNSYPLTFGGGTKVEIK = 0.05 µg/mL

With those in mind, consider the next binder.
### Prompt Query: IC50 of killing of Raji cells; subject: HuMab-CD74-005-mcMMAF (antibody, IgG1, V domains shown, drug-linker mcMMAF alkylated to the cysteines of the reduced antibody (DAR 3.9-4.0), Antibody-drug conjugate of HuMab-CD74-005 (IgG1,kappa); also called mcMMAF-conjugate of HuMab-CD74-005) VH: QVQLVESGGGVVQPGRSLRLSCAASGFTFSSYAMHWVRQAPGKGLEWVAVISYDGSNKYYADSVKGRFTISRDNSKNTLYLQMNSLRAEDTAVYYCASGRYYGSGSYSSYFDYWGQGTLVTVSS VL: DIQMTQSPSSLSASVGDRVTITCRASQGISSWLAWFQQKPEKAPKSLIYAASSLQSGVPSRFSGSGSGTDFTLTISSLQPEDFATYYCQQYNSYPLTFGGGTKVEIK
### Response 0.05 µg/mL
